system: AmpC beta-lactamase (E. coli); experiment: AmpC inhibition relative to DMSO; higher = more inhibition; details: 33 µM; detergent: no detergent
Each record here notes measured AmpC inhibition.
endpoint: AmpC inhibition (%)

1) CNC(=O)Nc1ccc2c(c1)CC[C@@]21OC(=O)N(CC(=O)N(Cc2ccc(F)cc2)[C@@H](C)C(F)(F)F)C1=O | -6.17
2) CCCCCCCc1ccc(CCc2cccc(O)c2C(=O)O)cc1 | 97.2
3) O=C(O[C@@H]1Cc2c(O)cc(O)cc2O[C@@H]1c1cc(O)c(O)c(O)c1)c1cc(O)c(O)c(O)c1 | 19.6
4) C=C1C(=O)O[C@H](CCC)[C@H]1C(=O)O | -0.772
5) COc1cc(/C=C/C(=O)CC(=O)/C=C/c2ccc(O)c(OC)c2)ccc1O | 71.1
6) CC(Cc1ccc(O)c(O)c1)C(C)Cc1ccc(O)c(O)c1 (stereo not given) | 47.4
7) CCCCCOc1ccc(/C=C\c2cccc(O)c2C(=O)O)cc1 | 69
8) CC1=NN(c2ccc(C(=O)O)cc2)C(=O)/C1=C\c1ccc(-c2cc(C)c(C)cc2[N+](=O)[O-])o1 | -43.6
9) CC1(C)CCC2=C(O1)c1ccccc1C(=O)C2=O | -16.2
10) Cl.Cl.O=C(O)Cn1nnc(-c2ccc(CN(CCCCOc3ccc(CN4CCCC4)cc3)CCc3ccccc3)cc2)n1 | -26.9

====

system: AmpC beta-lactamase (E. coli); experiment: AmpC inhibition relative to DMSO; higher = more inhibition; settings: 11 µM; detergent: 0.01% Triton X-100
Each record here notes measured AmpC inhibition.
endpoint: AmpC inhibition

1. O=C(O[C@@H]1Cc2c(O)cc(O)cc2O[C@@H]1c1cc(O)c(O)c(O)c1)c1cc(O)c(O)c(O)c1 | 4.89%
2. O=C1/C(=C/c2ccc(O)c(Br)c2)CCC/C1=C\c1ccc(O)c(Br)c1 | 9.28%
3. Cc1cc(-c2ccccc2)cc(C(=O)NNS(=O)(=O)c2ccccc2)c1F | 6.24%
4. COc1cc(/C=C/C(=O)CC(=O)/C=C/c2ccc(O)c(OC)c2)ccc1O | 5.4%
5. O=C(OCC)/C(C(OCC)=O)=C\CCCCCCCCCCCCCC | 1.25%
6. CNC(=O)Nc1ccc2c(c1)[C@@]1(CC2)OC(=O)N(CC(=O)N(Cc2ccc(F)cc2)[C@@H](C)C(F)(F)F)C1=O | 6.71%
7. O=C(NNS(=O)(=O)c1ccccc1)c1cc(-c2ccnnc2)ccc1F | 3.76%
8. COc1ccc(/C(Cl)=C(/C=O)c2ccc(OC)cc2)cc1 | 3.37%
9. CC1=NN(c2ccc(C(=O)O)cc2)C(=O)/C1=C\c1ccc(-c2cc(C)c(C)cc2[N+](=O)[O-])o1 | 8.78%
10. CCCCCCCCCCCCCCCc1cccc(O)c1C(=O)O | 6.87%

====

Each record here notes measured AmpC inhibition.
test system: AmpC beta-lactamase (E. coli); test: AmpC inhibition relative to DMSO; higher = more inhibition; details: 4 µM; detergent: 0.01% Triton X-100
endpoint: AmpC inhibition (%)

1) c1cc(SSc2ccns2)sn1 | 7.81
2) COc1ccc(/C(Cl)=C(\C=O)c2ccc(OC)cc2)cc1 | 2.6
3) O=C(NNS(=O)(=O)c1ccccc1F)c1cc(F)cc(-c2ccccn2)c1 | 10.7
